Data origin: the supplement of paper PMC3334620

Below: a set of entries, each annotated with reported PBM E-score.
# Target System: Sut1 (UniProt P53032)
# Sequence: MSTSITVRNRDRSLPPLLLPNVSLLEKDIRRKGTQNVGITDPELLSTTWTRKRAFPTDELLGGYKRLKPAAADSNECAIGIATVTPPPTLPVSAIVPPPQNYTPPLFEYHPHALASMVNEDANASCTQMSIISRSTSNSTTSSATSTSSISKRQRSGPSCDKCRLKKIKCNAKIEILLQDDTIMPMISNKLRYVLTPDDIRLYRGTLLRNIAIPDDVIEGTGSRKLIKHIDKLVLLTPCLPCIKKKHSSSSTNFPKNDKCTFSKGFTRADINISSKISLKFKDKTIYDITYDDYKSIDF
# Measurement Notes: PBM E-score (8-mer binding enrichment) (E-score (-0.5 to 0.5)); higher = stronger / more preferred TF binding
# Run Parameters: protein concentration: 200 nM; construct: GST-full length
The full ranking holds about 33,000 sequences; the median of “E-score (-0.5 to 0.5)” is about -0.017, and the highest 2% start at about 0.3. Only a selection was taken, and the highest values are over-represented in it overall.
// print number alone

Sample answers from the record:
CAGGTTGC :: -0.135
CAATGCTC :: -0.0941
TATTAATA :: 0.167
AAAACTAA :: 0.353
GAAATTGC :: -0.0449

Task item: Return reported PBM E-score; argument: TAAGAATA
Reply: -0.086

Task item: Could you do the same for CATAATTC , please?
Reply: 0.0494

Task item: Could you do the same for AATTAATA , please?
Reply: 0.327
